Tested on: synaptic benzodiazepine-sensitive receptors (BZR), GABAAR
PROTOCOL_DESCRIPTION: 3H-flunitrazepam binding, rat brain homogenate
TEST_PARAMETERS: at 10,000 nM
PROPERTY_NAME: BZR % (percent inhibition)
State the value with its unit after it.

Request the reported BZR % (percent inhibition) associated with C#Cc1ccc2c(c1)C(c1ccccn1)=NCc1c(C(=O)OC(C)C)ncn1-2
97%

Give me BZR % (percent inhibition) for each of these compounds, listed below.
1. Cc1noc(-c2ncn3c2[C@@H](C)N=C(c2ccccc2F)c2cc(Br)ccc2-3)n1
2. C#Cc1ccc2c(c1)C(c1ccccc1F)=N[C@@H](C)c1c(-c3nc(CC)no3)ncn1-2
3. Fc1ccccc1C1=NCc2c(-c3cnco3)ncn2-c2ccc(Br)cc21
4. CCOC(=O)c1ncn2c1[C@@H](C)N=C(c1ccccc1F)c1cc(Br)ccc1-2

1. 100%
2. 80%
3. 99%
4. 84%

Here are 2 compounds. What values of BZR % (percent inhibition) were reported for them?
1. C#Cc1ccc2c(c1)C(c1ccccc1F)=N[C@@H](C)c1c(C(=O)OCCC)ncn1-2
2. C[C@H]1N=C(c2ccccc2F)c2cc(Br)ccc2-n2cnc(C(=O)O)c21

98%
73%

I have this compound here, C#Cc1ccc2c(c1)C(c1ccccc1F)=N[C@H](C)c1c(C(=O)NC(C)C)ncn1-2 , and I need its recorded BZR % (percent inhibition).
88%
